tested on: Cavia porcellus; assay: Inhibition of PAF-induced bronchoconstriction in guinea pig 2 hr after p.o. administration.; type: functional; conditions: po, read-out: ID50 (the source's name)
Entries and their ED50
test.readout: ED50 (mg/kg)

In [3]: df
Out[3]:
                           molecular_string  test_readout  reported_result
0  COc1ccc(C(=C/C=C/C(=O)N[C@H](C)CCCc2cccnc2)c2ccc(OC)c(OC)c2)cc1OC          ED50               26
1  COc1ccc(C(=C/C=C/C(=O)Nc2ccc(-c3cccnc3)cc2)c2ccc(OC)cc2)cc1          ED50               29
2  CC/C(=C\C=C\C(=O)N[C@H](C)CCCc1cccnc1)c1ccc(OC)cc1          ED50               35
3  COc1ccc(C(=C/C=C/C(=O)N[C@@H](C)CCCc2cccnc2)c2ccc(OC)cc2)cc1          ED50               29
4  CCCC/C(=C\C=C\C(=O)N[C@H](C)CCCc1cccnc1)c1ccc(OC)cc1          ED50               12
5  CC[C@H](CCCc1cccnc1)NC(=O)/C=C/C=C(c1ccc(OC)cc1)c1ccc(OC)cc1          ED50                6
6  CCCCCC/C(=C\C=C\C(=O)N[C@H](C)CCCc1cccnc1)c1ccc(OC)cc1          ED50                8
7  COc1ccc(C(=C/C=C/C(=O)NCCCCc2cccnc2)c2ccc(OC)cc2)cc1          ED50               12
